Assay: Evaluation of solubility of acid generators in resist solvents (concentration at which completely dissolved)
Format: physicochemical
Settings: Table 8; propylene glycol monomethyl ether
Method: With respect to each of the compounds, propylene glycol monomethyl ether acetate (PGMEA) solutions, propylene glycol monomethyl ether (PGME) solutions and ethyl lactate (EL) solutions of various concentrations were prepared. The prepared solutions were stirred to evaluate the concentration at which the acid generator was completely dissolved.
metric-name: Solubility in PGME (% by weight)

(P) c1ccc(-[s+]2c3ccccc3c3ccccc32)cc1
(Q) c1ccc([S+](c2cccc3ccccc23)c2cccc3ccccc23)cc1
// compare measured Solubility in PGME (% by weight) between P and Q ; output the lower one I would appreciate it if you answered with the label of your choice.
Q

* * *

assay: Evaluation of solubility of acid generators in resist solvents (concentration at which completely dissolved); type: physicochemical; conditions: Table 1; ethyl lactate
metric-name: Solubility in EL (% by weight)

Cc1cc(-[s+]2c3ccccc3c3ccccc32)cc(C)c1OC(=O)OC(C)(C)C : 20

(I) c1ccc(-[s+]2c3ccccc3c3ccccc32)cc1
(II) c1ccc([S+](c2cccc3ccccc23)c2cccc3ccccc23)cc1
Which one would you say has the larger Solubility in EL (% by weight) value: I , or II ? I would appreciate it if you answered with the label of your choice.
I

* * *

test: Evaluation of solubility of acid generators in resist solvents (concentration at which completely dissolved); assay type: physicochemical; conditions: Table 1; propylene glycol monomethyl ether acetate
metric-name: Solubility in PGMEA (% by weight)

c1ccc(-[s+]2c3ccccc3c3ccccc32)cc1 [(b1-01)] : 20

(a) Cc1cc(-[s+]2c3ccccc3c3ccccc32)cc(C)c1OC(=O)OC(C)(C)C [Compound (b1-81)]
(b) c1ccc([S+](c2cccc3ccccc23)c2cccc3ccccc23)cc1 [(b′-01)]
// compare measured Solubility in PGMEA (% by weight) between a and b ; output the lower one I would appreciate it if you answered with the label of your choice.
b
(b: 5 % by weight, a: 20 % by weight)

* * *

assay: Evaluation of solubility of acid generators in resist solvents (concentration at which completely dissolved); assay type: physicochemical; details: Table 1; propylene glycol monomethyl ether; concentration at which completely dissolved
metric-name: Solubility in PGME (% by weight)

What value of Solubility in PGME (% by weight) has been reported for the following compound? Cc1cc(-[s+]2c3ccccc3c3ccccc32)cc(C)c1OC(=O)OC(C)(C)C [Compound (b1-81)]
10 % by weight

What value of Solubility in PGME (% by weight) has been reported for the following compound? c1ccc(-[s+]2c3ccccc3c3ccccc32)cc1 [(b1-01)]
10-15 % by weight

What value of Solubility in PGME (% by weight) has been reported for the following compound? Cc1cc(-[s+]2c3ccccc3c3ccccc32)cc(C)c1O [Compound (b1-51)]
<2 % by weight

What value of Solubility in PGME (% by weight) has been reported for the following compound? c1ccc([S+](c2cccc3ccccc23)c2cccc3ccccc23)cc1 [(b′-01)]
<2 % by weight
